measurement-notes: Water solubility experiment (absorbance vs concentration at maximum absorption wavelength)
assay-readout: solubility (µM)
# output: bare number, implied unit µM

// solubility lookup, compound = COc1ccc2c(c1)c(CC(=O)NCCCCCCNc1ccc3c4c1cccc4c(=O)n1c4ccccc4nc31)c(C)n2C(=O)c1ccc(Cl)cc1 , result: 5
